OD450 nm overview
# studyTarget: T1, recombinant human PCSK9-His protein (Immunogen A) (human, UniProt Q8NBP7 31-692, limits assumed, biotinylated in the ELISA assays)
# T1 construct: also called hPCSK9-His; His-tagged hPCSK9; not shown: His tag
# experimentDescription: ELISA; antibody 0.067 nM
Just the number please, in OD450 nm, no unit attached.

Consider the worked cases shown below.
binder | OD450 nm (OD450 nm)
139G1C5, fully human anti-PCSK9 antibody (antibody, human IgG1, V domains shown) VH: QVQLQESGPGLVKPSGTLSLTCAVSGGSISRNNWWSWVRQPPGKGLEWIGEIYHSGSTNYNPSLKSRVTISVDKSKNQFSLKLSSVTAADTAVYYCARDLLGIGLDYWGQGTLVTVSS VL: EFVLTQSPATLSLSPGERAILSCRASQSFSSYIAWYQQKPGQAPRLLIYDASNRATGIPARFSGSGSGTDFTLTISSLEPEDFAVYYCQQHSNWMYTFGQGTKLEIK | 1.7
152G2F7, fully human anti-PCSK9 antibody (antibody, human IgG1, V domains shown) VH: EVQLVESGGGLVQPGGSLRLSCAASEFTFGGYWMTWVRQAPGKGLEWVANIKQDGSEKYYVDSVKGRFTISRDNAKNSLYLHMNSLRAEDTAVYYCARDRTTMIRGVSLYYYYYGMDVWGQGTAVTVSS VL: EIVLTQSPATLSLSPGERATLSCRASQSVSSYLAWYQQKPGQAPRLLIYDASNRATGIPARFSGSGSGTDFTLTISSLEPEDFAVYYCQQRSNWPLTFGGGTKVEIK | 0.94
76A1B11, fully human anti-PCSK9 antibody (antibody, human IgG1, V domains shown) VH: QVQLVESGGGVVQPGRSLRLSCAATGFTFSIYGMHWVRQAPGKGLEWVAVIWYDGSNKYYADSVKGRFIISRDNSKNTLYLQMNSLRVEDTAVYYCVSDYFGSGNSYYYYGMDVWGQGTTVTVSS VL: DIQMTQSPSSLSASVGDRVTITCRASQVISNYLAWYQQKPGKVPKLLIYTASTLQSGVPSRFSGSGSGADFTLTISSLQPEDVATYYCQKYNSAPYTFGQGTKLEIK | 0.8

We next turn to a different binder, shown below.
Suppose we examine the binder 74C10A8, fully human anti-PCSK9 antibody (antibody, human IgG1, V domains shown) VH: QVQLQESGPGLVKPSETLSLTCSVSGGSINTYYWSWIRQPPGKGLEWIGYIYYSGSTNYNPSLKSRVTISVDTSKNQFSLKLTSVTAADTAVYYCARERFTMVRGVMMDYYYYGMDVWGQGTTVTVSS VL: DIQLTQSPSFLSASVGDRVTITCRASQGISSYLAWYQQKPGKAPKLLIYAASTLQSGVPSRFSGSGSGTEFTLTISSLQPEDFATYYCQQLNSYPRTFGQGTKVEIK ; what OD450 nm value has been reported? 1.52
